System: KRas G12C mutant
Test: Ras GTP binding domain inhibition assay (Cy3-GTP/Cy5-GTP competition)
Parameters: species or system human
Conditions: 20 μM; with SOS
Measured metric: KRas G12C mutant + SOS: % inh.

Compound	Measured metric	Value measured
COc1ccc(-c2c(-c3cccc(OC)c3F)sc3nc(-c4nccn4C)nc(N4CCC(OC)C4)c23)cc1 (centres unmarked) [drawing 806]	KRas G12C mutant + SOS: % inh.	D (76-100% inhibition)
COc1cccc(-c2csc3c(O)nc(-c4nccn4C)nc23)c1Cl [drawing 878]	KRas G12C mutant + SOS: % inh.	A (1-25% inhibition)
COc1nscc1-c1sc2nc(-c3nccn3C)nc(N3CCC(OC)C3)c2c1-c1ccccc1.Cl (centres unmarked)	KRas G12C mutant + SOS: % inh.	D (76-100% inhibition)
COc1ncccc1-c1sc2nc(-c3nccn3C)nc(N3CCC(OC)C3)c2c1-c1ccccc1.Cl (centres unmarked)	KRas G12C mutant + SOS: % inh.	C (51-75% inhibition)
COCCn1ccnc1-c1nc(O)c2scc(-c3ccccn3)c2n1 [drawing 852]	KRas G12C mutant + SOS: % inh.	D (76-100% inhibition)
O=C(c1nc(-c2ccccn2)nc(O)c1O)N1CCCC1 [drawing 831]	KRas G12C mutant + SOS: % inh.	A (1-25% inhibition)
COCCCNc1nc(-c2nccn2C)nc2sc(-c3ccn(C)n3)c(-c3ccc(OC)cc3)c12 [drawing 870]	KRas G12C mutant + SOS: % inh.	A (1-25% inhibition)
COCC1CCN(c2nc(-c3nccn3C)nc3sc(-c4ccn(C)n4)c(-c4ccccc4)c23)C1 (centres unmarked) [drawing 858]	KRas G12C mutant + SOS: % inh.	C (51-75% inhibition)
COC1CCN(c2nc(-c3nccn3C)nc3sc(-c4ccn(C)n4)c(-c4ccccc4)c23)CC1 [drawing 856]	KRas G12C mutant + SOS: % inh.	C (51-75% inhibition)
COc1ccc(-c2c(-c3ccn(C)n3)sc3nc(-c4nccn4C)nc(N4CCC(OC)C4)c23)cc1 (centres unmarked) [drawing 868]	KRas G12C mutant + SOS: % inh.	A (1-25% inhibition)
COCC(C)Nc1nc(-c2nccn2C)nc2sc(-c3ccccc3Cl)c(-c3cscn3)c12 (centres unmarked) [drawing 854]	KRas G12C mutant + SOS: % inh.	D (76-100% inhibition)
COc1cccc(Oc2nc(-c3ccccn3)nc(O)c2OC)c1 [drawing 801]	KRas G12C mutant + SOS: % inh.	C (51-75% inhibition)
COc1ccc(Cn2cnc(-c3nc(O)c4scc(-c5ccccn5)c4n3)c2)cc1 [drawing 839]	KRas G12C mutant + SOS: % inh.	A (1-25% inhibition)
COCCn1cc(Nc2nc(-c3ccccn3)nc(OC)c2OC)cn1 [drawing 793]	KRas G12C mutant + SOS: % inh.	A (1-25% inhibition)
Cc1cnc(-c2nc(O)c3scc(-c4ccccn4)c3n2)n1C [drawing 808]	KRas G12C mutant + SOS: % inh.	B (26-50% inhibition)
COC1CCN(c2nc(-c3nccn3C)nc3sc(-c4cccnc4)c(-c4ccccc4)c23)C1.Cl (centres unmarked)	KRas G12C mutant + SOS: % inh.	D (76-100% inhibition)
COc1nc(-c2ccccn2)nc(Nc2cnn(C)c2)c1OC [drawing 794]	KRas G12C mutant + SOS: % inh.	A (1-25% inhibition)
CC(C)CN(C)C(=O)c1nc(-c2ccccn2)nc(O)c1O [drawing 798]	KRas G12C mutant + SOS: % inh.	B (26-50% inhibition)
COc1ccc(-c2sc3nc(-c4nccn4C)nc(N4CCC(OC)C4)c3c2-c2ccccc2)cn1.Cl (centres unmarked)	KRas G12C mutant + SOS: % inh.	D (76-100% inhibition)
COCC(C)Nc1nc(-c2nccn2C)nc2sc(-c3ccn(C)n3)c(-c3ccc(OC)cc3)c12 (centres unmarked) [drawing 869]	KRas G12C mutant + SOS: % inh.	A (1-25% inhibition)
